Ref: paper PMC12093852

test system: T1, CXCR4 N-terminally fused to Nanoluciferase (UniProt P61073 1-352)
T1 construct: also called CXCR4 fused to a Nanoluciferase
assay: FRET or BRET; NanoBRET ligand binding competition; HEK293T cells stably expressing the receptor N-terminally fused to Nanoluciferase; increasing concentrations of ligands with 10 nM CXCL12-AZ568; 2 h on ice
protocol conditions: one partner purified
readout label: pIC50
Formally, pIC50 is defined as -log10 of the concentration c, with c in mol/L.

Requested read-out: pIC50. Entry: G protein-coupled receptor 15 ligand (GPR15LG) (ligand, UniProt Q6UWK7 25-81, looked up, also called C10orf99; AP-57) KRRPAKAWSGRRTRLCCHRVPSPNSTNLKGHHVRLCKPCKLEPEPRLWVVPGALPQV
6.08
